test system: Fibroblast; assay: Multiplex assay against human fibroblast; format: toxicity, cell-based; conditions: 12 h, 1 µM, compound concentration 1 uM, replicate 2
measurement_label: Population Fragmented Nuclei (%)

Answered examples (10):
Cc1csc2c(N[C@@H](C)CN3CCN(S(=O)(=O)c4ccc(Cl)c(Cl)c4)CC3)ncnc12
5%
Cc1nc(-c2ccc(-c3ccc(C(=O)N4CCc5cc6c(cc54)C4(CCN(C)CC4)CO6)cc3)c(C)c2)no1 [SB-224289]
4%
O=C1NCN(c2ccccc2)C12CCN(CCCOc1ccc(F)cc1)CC2 [SPIRAMIDE]
10%
Cc1c(-c2ccc(O)cc2)n(Cc2ccc(OCCN3CCCCCC3)cc2)c2ccc(O)cc12 [BAZEDOXIFENE]
13%
CN1CCN(CCOc2cc(OC3CCOCC3)c3c(Nc4c(Cl)ccc5c4OCO5)ncnc3c2)CC1 [SARACATINIB]
9%
CC[C@H](C)C(=O)O[C@H]1C[C@@H](C)C=C2C=C[C@H](C)[C@H](CC[C@@H]3C[C@@H](O)CC(=O)O3)[C@H]21 [LOVASTATIN]
22%
Cl.N#Cc1ccc2[nH]cc(CCCCN3CCN(c4ccc5oc(C(N)=O)cc5c4)CC3)c2c1 [VILAZODONE HYDROCHLORIDE]
14%
C[C@@H](NCCCc1cccc(C(F)(F)F)c1)c1cccc2ccccc12.Cl [CINACALCET HYDROCHLORIDE]
10%
COc1cc(-n2cnc3cc(-c4ccc(Cl)cc4)sc3c2=O)ccc1OCCN1CCCC1
11%
Cc1[nH]c(/C=C2\C(=O)Nc3ccc(S(=O)(=O)N(C)c4cccc(Cl)c4)cc32)c(C)c1C(=O)N1CCN(C)CC1
16%

Need Population Fragmented Nuclei (%) for each of these molecules.
1. CN1CCCC(n2nc(Cc3ccc(Cl)cc3)c3ccccc3c2=O)CC1.Cl (stereo unspecified) [AZELASTINE HYDROCHLORIDE]
2. CCN(CC)CCCCNc1ncc2cc(-c3cc(OC)cc(OC)c3)c(NC(=O)NC(C)(C)C)nc2n1 [PD-173074]

## Output
["6%", "46%"]
